Task for the reader: assign each of the following compounds its reported logP.
Assay Details: Hydrophobicity, log P of the compound in octanol-water by shaking-flask method
Format: physicochemical

Please review the entries below; each comes with its answer.
{"Compound": "O=[N+]([O-])/C=C1\\SCCN1Cc1ccc(Cl)nc1", "Result": 0.47}
{"Compound": "O=[N+]([O-])/N=c1\\[nH]ccn1Cc1cnc(Cl)s1", "Result": 0.27}
{"Compound": "O=[N+]([O-])/N=C1\\NCCCN1Cc1ccc(Cl)nc1", "Result": 0.57}
{"Compound": "CN1CCN(Cc2ccc(Cl)nc2)/C1=N/[N+](=O)[O-]", "Result": -0.07}
{"Compound": "O=[N+]([O-])Nc1nccn1Cc1ccc(Cl)nc1 [DEHYDROIMIDACLOPRID]", "Result": 0.33}
{"Compound": "O=[N+]([O-])/N=c1\\sccn1Cc1ccc(Cl)nc1", "Result": 0.53}

Dear colleague, could you please provide logP for the compounds listed below?
1. O=[N+]([O-])/N=C1\SCCN1Cc1cnc(Cl)s1
2. O=[N+]([O-])/N=c1\ccccn1Cc1cnc(Cl)s1
3. O=[N+]([O-])/C=C1\NCCN1Cc1ccc(Cl)nc1
4. O=[N+]([O-])/C=C1\CCCN1Cc1ccc(Cl)nc1

[0.8, 0.67, -0.18, 0.45]

Items follow; give logP for each.
1. O=[N+]([O-])/C=C1\NCCN1Cc1cnc(Cl)s1
2. O=[N+]([O-])/N=c1\ccccn1Cc1ccc(Cl)nc1
3. O=[N+]([O-])/N=C1\NCCN1Cc1cnc(Cl)s1 [IMIDACLOTHIZ]
4. O=[N+]([O-])/N=c1\sccn1Cc1cnc(Cl)s1
5. O=[N+]([O-])NC1=NCCN1Cc1ccc(Cl)nc1 [IMIDACLOPRID]

0.03
0.51
0.61
0.96
0.53

State the recorded logP for this entry: "CN1CCN(Cc2ccc(Cl)nc2)/C1=C/[N+](=O)[O-]"
-0.84
